Data origin: patent US20230241071A1

- Experiment Description: Multiple-ascending dose trial of Compound 1 in healthy participants: safety and PK
- Assay type: in vivo, human
- Condition Set: human, plasma, 1 mg, 1 mg QD, Last day (of 7); mean (CV %)
Endpoint Label: Cmax (ng/mL)
Give the value in ng/mL but do not write ng/mL after it.

Field request: Cmax | item: COC1CCN(c2ncc(OC/C(=C/F)CN)cn2)CC1 [Compound 1] 2.75

====

- Experiment Description: Multiple-ascending dose trial of Compound 2 in healthy participants
- Type: in vivo, human
- Condition Set: human, plasma, oral; Day 14, 1 mg QD; read-out: t1/2 (median) (converted)
- Description: A multiple-ascending dose clinical trial of Compound 2 was performed. Compound 2 plasma and urine concentrations were determined using validated liquid chromatography-tandem mass spectrometry assay. […] PD sampling was also performed. Percent change from baseline for PD markers were calculated using an ANCOVA model with percent change from baseline as dependent variable, treatment group as fixed effect, and baseline as covariate. […]
Endpoint Label: half-life
Returns: string containing the numeric result and its unit.

Which half-life is listed for `N#Cc1nn(-c2cc(Cl)c(Oc3n[nH]c(=O)c4ccccc34)c(Cl)c2)c(=O)[nH]c1=O` ? 19.5 h

====

- Experiment Description: Multiple-ascending dose trial of Compound 1 in healthy participants: safety and PK
- Type: in vivo, human
- Condition Set: human, plasma, 1 mg, 1 mg QD, Day 1; mean (CV %)
Endpoint Label: Cmax (ng/mL)
Quick reminder: number only, in ng/mL, skip the unit.

Cmax lookup needed for `COC1CCN(c2ncc(OC/C(=C/F)CN)cn2)CC1` , thanks. 0.568

====

- Experiment Description: pH and solubilizer effect on solubility
- Type: physicochemical
- Condition Set: pH 6.0 buffer with 2 wt % SLS, 25 °C, pH 6, aqueous with cosolvent or surfactant or cyclodextrin, thermodynamic from solid, pH 6.0 buffer, with 2 wt % SLS, potassium salt
Endpoint Label: solubility at 24 h
Provide a numeric answer, followed by its unit.

Given N#Cc1nn(-c2cc(Cl)c(Oc3n[nH]c(=O)c4ccccc34)c(Cl)c2)c(=O)[nH]c1=O [Compound 2] , state its recorded solubility at 24 h. 42.3 µg/mL

====

- Experiment Description: Multiple-ascending dose trial of Compound 1 in healthy participants: safety and PK
- Type: in vivo, human
- Condition Set: human, plasma, 1 mg, 1 mg QD, Last day (of 7); mean (CV %)
Endpoint Label: AUC(0-t) (ng·h/mL)
Report only the number, with the unit ng·h/mL understood.

Would you kindly share the measured AUC(0-t) for `COC1CCN(c2ncc(OC/C(=C/F)CN)cn2)CC1` ? 13.3

====

- Experiment Description: pH and solubilizer effect on solubility
- Assay type: physicochemical
- Condition Set: pH 8.0 buffer with 2 wt % SLS, 25 °C, pH 8, aqueous with cosolvent or surfactant or cyclodextrin, thermodynamic from solid, pH 8.0 buffer, with 2 wt % SLS, potassium salt
Endpoint Label: solubility at 24 h

Quick check: solubility at 24 h of `N#Cc1nn(-c2cc(Cl)c(Oc3n[nH]c(=O)c4ccccc34)c(Cl)c2)c(=O)[nH]c1=O` ? 302 µg/mL

====

- Experiment Description: pH and solubilizer effect on solubility
- Format: physicochemical
- Condition Set: 0.1N HCl, 25 °C, simulated gastric fluid, thermodynamic from solid, without 2 wt % SLS, potassium salt
- Description: Solubility of compound 2 (potassium salt) was evaluated at various pH levels.
Endpoint Label: solubility at 24 h

Any idea what its solubility at 24 h is? The compound is `N#Cc1nn(-c2cc(Cl)c(Oc3n[nH]c(=O)c4ccccc34)c(Cl)c2)c(=O)[nH]c1=O` < 0.03 µg/mL

====

- Experiment Description: Single-ascending dose trial of Compound 2 in healthy participants: safety and PK
- Format: in vivo, human
- Condition Set: human, plasma, oral, 3 mg, single dose 3 mg, fasted (n = 6); median (min-max); read-out: t1/2 (converted)
Endpoint Label: half-life (h)
A number alone suffices; assume h.

Fill in the blank: the reported half-life of `N#Cc1nn(-c2cc(Cl)c(Oc3n[nH]c(=O)c4ccccc34)c(Cl)c2)c(=O)[nH]c1=O` is ____. 17.3

====

- Experiment Description: Single-ascending dose trial of Compound 2 in healthy participants: safety and PK
- Assay type: in vivo, human
- Condition Set: human, plasma, oral; single dose 60 mg, fasted (n = 6); mean
Endpoint Label: AUC(0-inf) (ng·h/mL)
Report the figure in ng·h/mL without appending any unit label.

# input molecule: `N#Cc1nn(-c2cc(Cl)c(Oc3n[nH]c(=O)c4ccccc34)c(Cl)c2)c(=O)[nH]c1=O` ; wanted: its AUC(0-inf) 50000

====

- Experiment Description: Multiple-ascending dose trial of Compound 1 in healthy participants: safety and PK
- Assay type: in vivo, human
- Condition Set: human, plasma, 10 mg, 10 mg QD, Last day (of 14); mean (CV %)
Endpoint Label: Cmax (µg/mL)
Form entry: value (µg/mL) — number only.

Which Cmax reading was recorded for the molecule `COC1CCN(c2ncc(OC/C(=C/F)CN)cn2)CC1` ? 0.0475

====

- Experiment Description: Multiple-ascending dose trial of Compound 2 in healthy participants
- Assay type: in vivo, human
- Condition Set: human, plasma, oral; Day 14, 6 mg QD
Endpoint Label: Cmax (ng/mL)
I only need the number, in ng/mL, no unit after it.

Give the measured Cmax of `N#Cc1nn(-c2cc(Cl)c(Oc3n[nH]c(=O)c4ccccc34)c(Cl)c2)c(=O)[nH]c1=O` . 699

====

- Experiment Description: Multiple-ascending dose trial of Compound 1 in healthy participants: safety and PK
- Type: in vivo, human
- Condition Set: human, plasma, 4 mg, 4 mg QD, Day 1; mean (CV %)
Endpoint Label: Cmax (ng/mL)
Form entry: value (ng/mL) — number only.

So what's the measured Cmax for this one? COC1CCN(c2ncc(OC/C(=C/F)CN)cn2)CC1 [Compound 1] 5.11

====

- Experiment Description: pH and solubilizer effect on solubility
- Assay type: physicochemical
- Condition Set: pH 8.0 buffer, 25 °C, pH 8, aqueous buffer, thermodynamic from solid, without 2 wt % SLS, potassium salt
Endpoint Label: solubility at 24 h (µg/mL)
Kindly answer with a numeric value in µg/mL, unit omitted.

Name the reported solubility at 24 h value associated with the compound `N#Cc1nn(-c2cc(Cl)c(Oc3n[nH]c(=O)c4ccccc34)c(Cl)c2)c(=O)[nH]c1=O` 10.8

====

- Experiment Description: Multiple-ascending dose trial of Compound 1 in healthy participants: safety and PK
- Type: in vivo, human
- Condition Set: human, plasma, 10 mg, 10 mg QD, Last day (of 14); mean (CV %)
Endpoint Label: AUC(0-t) (ng·h/mL)
Dear colleague, please return just the value in ng·h/mL, with no unit written.

Given the compound COC1CCN(c2ncc(OC/C(=C/F)CN)cn2)CC1 [Compound 1] , what is its reported AUC(0-t)? 656

====

- Experiment Description: Single-ascending dose trial of Compound 2 in healthy participants: safety and PK
- Type: in vivo, human
- Condition Set: human, plasma, oral; single dose 30 mg, fasted (n = 6); mean
Endpoint Label: AUC(0-inf) (ng·h/mL)
Value expressed in ng·h/mL; do not type the unit.

Param item = N#Cc1nn(-c2cc(Cl)c(Oc3n[nH]c(=O)c4ccccc34)c(Cl)c2)c(=O)[nH]c1=O [Compound 2] ; retrieve measured AUC(0-inf). 33000

====

- Experiment Description: Multiple-ascending dose trial of Compound 2 in healthy participants
- Format: in vivo, human
- Condition Set: human, plasma, oral; Day 14, 6 mg QD; read-out: AUCtau (mean)
Endpoint Label: AUC (ng·h/mL)
Give the number; ng·h/mL is assumed, so skip it.

Would you mind telling me what AUC value was observed for N#Cc1nn(-c2cc(Cl)c(Oc3n[nH]c(=O)c4ccccc34)c(Cl)c2)c(=O)[nH]c1=O [Compound 2] ? 8310

====

- Experiment Description: Multiple-ascending dose trial of Compound 1 in healthy participants: safety and PK
- Format: in vivo, human
- Condition Set: human, plasma; 1 mg QD, Last day (of 7); median (min, max)
Endpoint Label: half-life (h)
Write the number in h without appending the unit.

Given the compound COC1CCN(c2ncc(OC/C(=C/F)CN)cn2)CC1 [Compound 1] , what is its reported half-life? 2.27

====

- Experiment Description: Multiple-ascending dose trial of Compound 2 in healthy participants
- Assay type: in vivo, human
- Condition Set: human, plasma, oral; Day 14, 10 mg QD; read-out: AUCtau (mean)
Endpoint Label: AUC (ng·h/mL)
Record the value in ng·h/mL, omitting the unit from your answer.

Quick check: AUC of `N#Cc1nn(-c2cc(Cl)c(Oc3n[nH]c(=O)c4ccccc34)c(Cl)c2)c(=O)[nH]c1=O` ? 10600

====

- Experiment Description: Approximate pKa
- Type: physicochemical
Endpoint Label: pKa

For the molecule shown here, N#Cc1nn(-c2cc(Cl)c(Oc3n[nH]c(=O)c4ccccc34)c(Cl)c2)c(=O)[nH]c1=O [Compound 2] , give the reported pKa. ~4.12
